Provenance of the data: patent US20260242478A1

# STUDY SYSTEM: T1, Anti-PSMA Fab (SEQ ID NOs: 19, 20)
# T1 construct: In the panning ELISA the Fab was biotinylated and captured on neutravidin coated plates; also called 006 PSMA Fab
# ASSAY TEXT: phage binding ELISA; biotinylated PSMA Fab on neutravidin plate pre-incubated with PSMA antigen (competitor), anti-M13 HRP detection;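 also: competition ELISA where clonal phage supernatants were added to wells preincubated with PSMA antigen or with blocking buffer only as control, bound phage read via HRP-coupled anti-M13 antibody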
Where no end group is shown, it is not given here.
MEASURE: Anti-PSMA Fab signal in the presence of PSMA

# count of solved cases: 5
VTPWCTPSWMCFGF (tested as crude clonal phage supernatant) [Phage-1882]    0.072
IERWCIPDWMCHVW (tested as crude clonal phage supernatant) [Phage-1877]    0.126
VLMLCKPAWMCMGF (tested as crude clonal phage supernatant) [Phage-1880]    0.375
VVKLCIPEWMCAEW (cysteine pairing not given here; also: displayed on phage as pIII fusion, pIII sequence and linker not given here, tested as crude clonal phage supernatant) [Phage-1876]    0.115
LDHWCFPMWMCTGF (tested as crude clonal phage supernatant) [Phage-1887]    0.233

Memo: VNKLCTPEWMCVGM (tested as crude clonal phage supernatant) [Phage-1883] , reported Anti-PSMA Fab signal in the presence of PSMA: 0.0609

Memo: MVMRCQPEWMCTGI (tested as crude clonal phage supernatant) [Phage-1884] , reported Anti-PSMA Fab signal in the presence of PSMA: 0.122

Memo: SLHWCIPAWMCDFV (tested as crude clonal phage supernatant) [Phage-1879] , reported Anti-PSMA Fab signal in the presence of PSMA: 0.185

Memo: WEKWCIPAWMCVAD (tested as crude clonal phage supernatant) [Phage-1886] , reported Anti-PSMA Fab signal in the presence of PSMA: 0.134

Memo: VEILCKPKWMCEFW (tested as crude clonal phage supernatant) [Phage-1878] , reported Anti-PSMA Fab signal in the presence of PSMA: 0.109

Memo: LEKWCTPAWMCEML (tested as crude clonal phage supernatant) [Phage-1881] , reported Anti-PSMA Fab signal in the presence of PSMA: 0.0814
